System: CAKI-1
assay-info: AUC of dose-response viability curve, drug alone (arbitrary (AUC of normalised viability)); higher = less growth inhibition
reported-conditions: treatment: drug alone; 5 days
measured-quantity: AUC of dose-response viability curve
The answer should be written as a number, with no unit following it.

Test system CAKI-1; read-out AUC of dose-response viability curve; what value for O=C1C(=O)N(Cc2ccc(Cl)c(Cl)c2)c2ccccc21 [Apoptosis Activator 2] ?
3.53

Test system CAKI-1; read-out AUC of dose-response viability curve; what value for O=C(O)c1ccc2c(c1)nc(Nc1cccc(Cl)c1)c1ccncc12 [cx-4945 (Silmitasertib)] ?
3.07

Test system CAKI-1; read-out AUC of dose-response viability curve; what value for Cc1n[nH]c2ccc(-c3cncc(OC[C@@H](N)Cc4ccccc4)c3)cc12 ?
2.6

Test system CAKI-1; read-out AUC of dose-response viability curve; what value for C[C@]1(O)C[C@@H](c2nc(-c3ccc4ccc(-c5ccccc5)nc4c3)c3c(N)nccn32)C1 [Linsitinib (OSI-906)] ?
2.99

Test system CAKI-1; read-out AUC of dose-response viability curve; what value for COC1=CC(c2cc3ccccc3[nH]2)=N/C1=C\c1[nH]c(C)cc1C.CS(=O)(=O)O [Obatoclax mesylate (GX15-070)] ?
2.23

Test system CAKI-1; read-out AUC of dose-response viability curve; what value for Cc1ncc(-c2ccnc(Nc3ccc(S(C)(=O)=O)cc3)n2)n1C(C)C [AZD5438] ?
2.97

Test system CAKI-1; read-out AUC of dose-response viability curve; what value for C[C@@H]1CN(CC(=O)Nc2ccc3c(c2)Cc2cccc(-c4cc(=O)cc(N5CCOCC5)o4)c2S3)C[C@H](C)O1 ?
2.8

###

System: SN12C
assay-info: GI50, drug alone; higher = less potent
reported-conditions: treatment: drug alone; 5 days
measured-quantity: GI50, drug alone (µM)
Just the number please, in µM, no unit attached.

# input-smiles, GI50, drug alone (µM)
measured = [
    ("S=C(NCc1ccc2c(c1)OCO2)N1CCN(c2ncnc3c2oc2ccccc23)CC1", 1.56),
]

API: the following record is the query input.
Which measured GI50, drug alone value corresponds to O=C1C(=O)N(Cc2ccc(Cl)c(Cl)c2)c2ccccc21 ?
4.98

###

This section presents compounds with their documented AUC of dose-response viability curve values.
Test system: CAKI-1
assay-info: AUC of dose-response viability curve, drug + dasatinib, normalised to DMSO (arbitrary (AUC of normalised viability)); higher = less growth inhibition
reported-conditions: treatment: drug + dasatinib (fixed dose, not stated); 5 days
The answer should be written as a number, with no unit following it.

# compound, AUC of dose-response viability curve
records = [
    ("CCS(=O)(=O)c1cccc(-c2cc(C(=O)NC3CCN(C)CC3)c(C)c3[nH]c4ncc(C)cc4c23)c1 [TAK-901] + Cc1nc(Nc2ncc(C(=O)Nc3c(C)cccc3Cl)s2)cc(N2CCN(CCO)CC2)n1", 1.62),
    ("CC[C@@H]1C(=O)N(C)c2cnc(Nc3ccc(C(=O)N[C@H]4CC[C@H](N5CCN(CC6CC6)CC5)CC4)cc3OC)nc2N1C(C)C [BI6727 (Volasertib)] + Cc1nc(Nc2ncc(C(=O)Nc3c(C)cccc3Cl)s2)cc(N2CCN(CCO)CC2)n1", 1.25),
    ("Cc1ccc(NC(=O)c2cccc(C(C)(C)C#N)c2)cc1Nc1ccc2ncn(C)c(=O)c2c1 [AZ628] + Cc1nc(Nc2ncc(C(=O)Nc3c(C)cccc3Cl)s2)cc(N2CCN(CCO)CC2)n1", 2.08),
]

API: the following record is the query input.
Test system CAKI-1; read-out AUC of dose-response viability curve; what value for COc1cc2nccc(Oc3ccc(NC(=O)NC4CC4)c(Cl)c3)c2cc1C(N)=O [E7080 (Lenvatinib)] + Cc1nc(Nc2ncc(C(=O)Nc3c(C)cccc3Cl)s2)cc(N2CCN(CCO)CC2)n1 ?
1.81
